Data origin: ChEMBL document CHEMBL3885881

# Species: Rattus norvegicus
# TEST SUMMARY: DrugMatrix - Regimen: Daily Repeat
# Type: toxicity, organism-based, Sprague-Dawley
# Parameters: regimen Daily Repeat, gender Male, age 6-8 weeks
# CONDITION DETAILS: in vivo, po, 1500 mg/kg, 72 h, tissue Blood, route oral GAVAGE, dose level High, time 3 day, vehicle .5 % CMC
# note: boundary value 90% maps to Not satisfied; LYMPHOCYTE below it maps to Satisfied

COMPOUND	CATEGORY
Cc1ccc(S(=O)(=O)NC(=O)NN2CC3CCCC3C2)cc1 (configuration not stated) [GLICLAZIDE]	Satisfied
CO[C@H]1/C=C/O[C@@]2(C)Oc3c(C)c(O)c4c(c3C2=O)C2=NC3(CCN(CC(C)C)CC3)NC2=C(NC(=O)/C(C)=C\C=C\[C@H](C)[C@H](O)[C@@H](C)[C@@H](O)[C@@H](C)[C@H](OC(C)=O)[C@@H]1C)C4=O	Satisfied
NC(=O)c1cnccn1 [PYRAZINAMIDE]	Satisfied
O=C(N[C@H](CO)[C@H](O)c1ccc([N+](=O)[O-])cc1)C(Cl)Cl	Not satisfied
